TEST: qHTS RealTime-Glo MT Cell Viability Assay in HEK293 cells - 40 hour (AID 1224874); also: % is scaled to controls: 0 for no effect and ±100 for the full control effect; nearly all actives have a fitted effect of over 50% in size
TEST SETTINGS: RealTime-Glo luminescence; stronger effect = lower value
Results filed as inconclusive are left out.
// reported max response for each item listed
The figure you give is taken to be in %; do not add the unit.

For the compound shown here, CC(COCCO)OCCO (stereo not drawn) , give the reported max response. 4.24

Any idea what its max response is? The compound is OC(C#CCN1CCCC1)(c1ccccc1)c1ccccc1 -8.96

* * *

TEST: qHTS assay to identify small molecule antagonists of the estrogen related receptor signaling pathway with the pleiotropic PPARgamma coactivator (PGC) from Tox21 10K library - cell viability counter screen (AID 1224840); also: nearly all actives have a fitted effect of over 40% in size; also: potency is read from the fitted curve at half-maximal effect
TEST SETTINGS: PGC/ERR reporter cells viability, CellTiter-Fluor, 17.5 h; series mostly up to 92.4 µM
Method: National Center for Advancing Translational Sciences [NCATS] NIH Chemical Genomics Center [NCGC] U.S. Environmental Protection Agency [EPA] National Institutes of Environmental Health Sciences [NIEHS] National Toxicology Program [NTP] […] The PGC/ERR cells were dispensed at 2,000 cells/5 ul/well in 1536-well white plates using a Multidrop dispenser. […] After 30-minute incubation at 37 C/5% CO2, the fluorescence intensity in the plates was measured using a ViewLux plate reader.
Inconclusive results are not listed. Active and inactive are the calls of the source. The call rests on the fitted dose curve; in most records, active means well fitted cell-killing curve with a large enough effect in the repeat runs (not every such curve was filed as active); inconclusive means weak or mixed curves, or effect the other way; inactive means no such curve, though single readings can be large or run the other way.
OBSERVED PROPERTY: Potency

[
  {
    "QUERY SMILES": "CC(C)(CO)[N+](=O)[O-]",
    "Potency": "inactive"
  },
  {
    "QUERY SMILES": "C[C@@H]1C[C@H]2O[C@@]3(O[C@@H]2C(C)(C)O)[C@H](O)[C@@]2(C)[C@@H]4CC[C@H]5C(C)(C)[C@@H](O[C@@H]6OC[C@@H](O)[C@H](O)[C@H]6O)CC[C@@]56C[C@@]46CC[C@]2(C)[C@@H]13",
    "Potency": "inactive"
  },
  {
    "QUERY SMILES": "CCCCCCCCCCO[C@@H]1O[C@H](CO)[C@@H](O)[C@H](O)[C@H]1O",
    "Potency": "inactive"
  },
  {
    "QUERY SMILES": "CCCCCCCCCc1ccc(OCCOCCO)cc1",
    "Potency": "10.2 µM (active)"
  }
]

Now turn to the next compound.
What does the data say about its Potency? Entry: CCOc1ccc(N)c([N+](=O)[O-])c1 inactive

All figures here come from PubChem BioAssay (Tox21).
